Give measured IC50 for each item. Keep answers brief.
Field: value (include unit after the number)

Incoming: Form entry - test system: UniProt:P36888; read-out: IC50; compound: "CN1CCN(Cc2ccc(NC(=O)c3n[nH]cc3Nc3ncnc4[nH]ccc34)cc2)CC1"
Sequence (P36888 27-993): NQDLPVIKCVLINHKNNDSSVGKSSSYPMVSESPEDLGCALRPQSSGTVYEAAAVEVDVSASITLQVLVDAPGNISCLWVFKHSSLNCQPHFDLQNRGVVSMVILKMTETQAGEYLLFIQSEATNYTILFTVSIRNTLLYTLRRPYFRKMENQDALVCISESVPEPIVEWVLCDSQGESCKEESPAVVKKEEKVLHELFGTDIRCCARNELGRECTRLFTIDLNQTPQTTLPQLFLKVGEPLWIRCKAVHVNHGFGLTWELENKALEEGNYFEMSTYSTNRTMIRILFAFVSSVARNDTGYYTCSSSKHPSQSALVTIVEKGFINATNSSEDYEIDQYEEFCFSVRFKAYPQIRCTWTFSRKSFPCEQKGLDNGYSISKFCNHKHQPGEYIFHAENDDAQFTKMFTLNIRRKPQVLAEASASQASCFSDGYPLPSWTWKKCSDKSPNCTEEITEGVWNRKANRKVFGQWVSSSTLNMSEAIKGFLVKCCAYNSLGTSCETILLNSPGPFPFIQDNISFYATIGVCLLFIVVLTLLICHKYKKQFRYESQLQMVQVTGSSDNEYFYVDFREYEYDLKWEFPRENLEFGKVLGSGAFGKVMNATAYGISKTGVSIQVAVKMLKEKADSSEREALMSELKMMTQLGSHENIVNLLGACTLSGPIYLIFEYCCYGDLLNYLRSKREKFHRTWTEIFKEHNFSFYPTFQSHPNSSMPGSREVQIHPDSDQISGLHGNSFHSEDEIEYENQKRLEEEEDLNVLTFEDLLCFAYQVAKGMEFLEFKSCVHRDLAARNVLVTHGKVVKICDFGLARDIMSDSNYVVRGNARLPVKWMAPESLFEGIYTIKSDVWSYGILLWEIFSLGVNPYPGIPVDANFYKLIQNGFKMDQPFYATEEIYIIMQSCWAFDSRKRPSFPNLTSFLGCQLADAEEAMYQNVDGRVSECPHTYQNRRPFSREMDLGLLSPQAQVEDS
Outgoing: 0.79 nM

Incoming: Form entry - test system: UniProt:P36888; read-out: IC50; compound: O=C1Nc2cc(Cl)ccc2C1=Cc1ccc(OCc2cccnc2)cc1 (mixture of isomers)
Outgoing: 36.2 nM

---

Give measured melting point for each item. Keep answers brief.

Incoming: Which measured melting point value corresponds to O=C1Nc2ccc(Cl)cc2C1=Cc1ccc(OCc2ccccn2)cc1 (mixture of isomers) [Compound 5g] ?
Outgoing: 219 to 220 °C

Incoming: Which measured melting point value corresponds to O=C1Nc2cc(Cl)ccc2C1=Cc1ccc(OCc2ccccn2)cc1 (mixture of isomers) [Compound 5h] ?
Outgoing: 260 to 263 °C

Incoming: Which measured melting point value corresponds to O=C1Nc2cc(Cl)ccc2C1=Cc1ccc(OCc2ccccc2)cc1 (mixture of isomers) [Compound 5d] ?
Outgoing: 259 to 261 °C

Incoming: Which measured melting point value corresponds to O=C1Nc2ccc(Cl)cc2C1=Cc1ccc(OCc2cccnc2)cc1 (mixture of isomers) [Compound 5k] ?
Outgoing: 199 to 201 °C

---

# Tested on: NCI-60 human cancer cell lines
# protocolSummary: NCI-60 screen, full panel summary
# Format: cell-based
# conditionsUsed: 10 µM single dose
hey, just use true if measured number of cell lines with cytostatic effects is less than 30, otherwise false

Incoming: In the record for O=C1Nc2ccc(F)cc2C1=Cc1ccc(OCc2ccncc2)cc1 (mixture of isomers) , is number of cell lines with cytostatic effects less than 30?
Outgoing: true

Incoming: In the record for O=C1Nc2ccc(Cl)cc2C1=Cc1ccc(OCc2ccccn2)cc1 (mixture of isomers) , is number of cell lines with cytostatic effects less than 30?
Outgoing: true

Incoming: In the record for O=C1Nc2cc(Cl)ccc2C1=Cc1ccc(OCc2ccncc2)cc1 (mixture of isomers) , is number of cell lines with cytostatic effects less than 30?
Outgoing: true

Incoming: In the record for O=C1Nc2ccc(Cl)cc2C1=Cc1ccc(OCc2ccncc2)cc1 (mixture of isomers) , is number of cell lines with cytostatic effects less than 30?
Outgoing: true

Incoming: In the record for O=C1Nc2ccccc2C1=Cc1ccc(OCc2ccncc2)cc1 (mixture of isomers) , is number of cell lines with cytostatic effects less than 30?
Outgoing: true

Incoming: In the record for O=C1Nc2ccc(F)cc2C1=Cc1ccc(OCc2cccnc2)cc1 (mixture of isomers) , is number of cell lines with cytostatic effects less than 30?
Outgoing: false

Incoming: In the record for O=C1Nc2cc(Cl)ccc2C1=Cc1ccc(OCc2cccnc2)cc1 (mixture of isomers) , is number of cell lines with cytostatic effects less than 30?
Outgoing: false

---

# Test system: A549/ATCC
# protocolSummary: NCI-60 antiproliferative screen (SRB)
# Format: cell-based, human
# conditionsUsed: Homo sapiens; 10 µM single dose, 48 h; A549/ATCC (NSCLC); read-out: Growth inhibition (%)
Entry flag: y if inhibition at 10 µM reaches 30%; n if it does not.

Incoming: Can O=C1Nc2cc(Cl)ccc2C1=Cc1ccc(OCc2ccncc2)cc1 (mixture of isomers) be said to have inhibition at 10 µM at or above 30%?
Outgoing: n

Incoming: Can O=C1Nc2cc(Cl)ccc2C1=Cc1ccc(OCc2cccnc2)cc1 (mixture of isomers) be said to have inhibition at 10 µM at or above 30%?
Outgoing: y

Incoming: Can O=C1Nc2ccccc2C1=Cc1ccc(OCc2ccncc2)cc1 (mixture of isomers) be said to have inhibition at 10 µM at or above 30%?
Outgoing: y

Incoming: Can O=C1Nc2ccc(Cl)cc2C1=Cc1ccc(OCc2ccccc2)cc1 (mixture of isomers) be said to have inhibition at 10 µM at or above 30%?
Outgoing: n

---

# System: MDA-MB-435
# protocolSummary: NCI-60 antiproliferative screen (SRB)
# Assay type: cell-based, human
# conditionsUsed: Homo sapiens; 10 µM single dose, 48 h; MDA-MB-435 (Melanoma); read-out: Growth inhibition (%)
Give measured inhibition at 10 µM for each item. Keep answers brief.
Form entry: value (%) — number only.

Incoming: Which measured inhibition at 10 µM value corresponds to O=C1Nc2ccccc2C1=Cc1ccc(OCc2cccnc2)cc1 (mixture of isomers) ?
Outgoing: 60.9

Incoming: Which measured inhibition at 10 µM value corresponds to O=C1Nc2ccc(Cl)cc2C1=Cc1ccc(OCc2ccncc2)cc1 (mixture of isomers) ?
Outgoing: 58.7

Incoming: Which measured inhibition at 10 µM value corresponds to O=C1Nc2ccc(Cl)cc2C1=Cc1ccc(OCc2cccnc2)cc1 (mixture of isomers) ?
Outgoing: 29.3

Incoming: Which measured inhibition at 10 µM value corresponds to O=C1Nc2ccccc2C1=Cc1ccc(OCc2ccncc2)cc1 (mixture of isomers) ?
Outgoing: 49.6

Incoming: Which measured inhibition at 10 µM value corresponds to O=C1Nc2ccc(F)cc2C1=Cc1ccc(OCc2ccncc2)cc1 (mixture of isomers) ?
Outgoing: 61.7

Incoming: Which measured inhibition at 10 µM value corresponds to O=C1Nc2cc(Cl)ccc2C1=Cc1ccc(OCc2ccccn2)cc1 (mixture of isomers) ?
Outgoing: 23.9

Incoming: Which measured inhibition at 10 µM value corresponds to O=C1Nc2ccc(F)cc2C1=Cc1ccc(OCc2ccccn2)cc1 (mixture of isomers) ?
Outgoing: -2.77

Incoming: Which measured inhibition at 10 µM value corresponds to O=C1Nc2ccccc2C1=Cc1ccc(OCc2ccccc2)cc1 (mixture of isomers) ?
Outgoing: -2.33

Incoming: Which measured inhibition at 10 µM value corresponds to O=C1Nc2ccc(Cl)cc2C1=Cc1ccc(OCc2ccccn2)cc1 (mixture of isomers) ?
Outgoing: 23.1

Incoming: Which measured inhibition at 10 µM value corresponds to O=C1Nc2ccccc2C1=Cc1ccc(OCc2ccccn2)cc1 (mixture of isomers) ?
Outgoing: 10.1

Incoming: Which measured inhibition at 10 µM value corresponds to O=C1Nc2ccc(Cl)cc2C1=Cc1ccc(OCc2ccccc2)cc1 (mixture of isomers) ?
Outgoing: -3.79

Incoming: Which measured inhibition at 10 µM value corresponds to O=C1Nc2ccc(F)cc2C1=Cc1ccc(OCc2cccnc2)cc1 (mixture of isomers) ?
Outgoing: 98.3

Incoming: Which measured inhibition at 10 µM value corresponds to O=C1Nc2cc(Cl)ccc2C1=Cc1ccc(OCc2ccccc2)cc1 (mixture of isomers) ?
Outgoing: 0.59

Incoming: Which measured inhibition at 10 µM value corresponds to O=C1Nc2cc(Cl)ccc2C1=Cc1ccc(OCc2cccnc2)cc1 (mixture of isomers) ?
Outgoing: 121

Incoming: Which measured inhibition at 10 µM value corresponds to O=C1Nc2cc(Cl)ccc2C1=Cc1ccc(OCc2ccncc2)cc1 (mixture of isomers) ?
Outgoing: 29.2

Incoming: Which measured inhibition at 10 µM value corresponds to O=C1Nc2ccc(F)cc2C1=Cc1ccc(OCc2ccccc2)cc1 (mixture of isomers) ?
Outgoing: 5.59

---

# Tested on: BT-549
# protocolSummary: NCI-60 antiproliferative screen (SRB)
# Assay type: cell-based, human
# conditionsUsed: Homo sapiens; 10 µM single dose, 48 h; BT-549 (Breast); read-out: Growth inhibition (%)
measure: inhibition at 10 µM (%)
Form entry: value (%) — number only.

Incoming: Which measured inhibition at 10 µM value corresponds to O=C1Nc2ccc(Cl)cc2C1=Cc1ccc(OCc2ccccc2)cc1 (mixture of isomers) ?
Outgoing: -2.68

Incoming: Which measured inhibition at 10 µM value corresponds to O=C1Nc2ccccc2C1=Cc1ccc(OCc2ccccc2)cc1 (mixture of isomers) ?
Outgoing: -5.74

Incoming: Which measured inhibition at 10 µM value corresponds to O=C1Nc2cc(Cl)ccc2C1=Cc1ccc(OCc2cccnc2)cc1 (mixture of isomers) ?
Outgoing: 95.7

Incoming: Which measured inhibition at 10 µM value corresponds to O=C1Nc2ccccc2C1=Cc1ccc(OCc2ccccn2)cc1 (mixture of isomers) ?
Outgoing: 41.2

Incoming: Which measured inhibition at 10 µM value corresponds to O=C1Nc2cc(Cl)ccc2C1=Cc1ccc(OCc2ccccc2)cc1 (mixture of isomers) ?
Outgoing: -1.23

Incoming: Which measured inhibition at 10 µM value corresponds to O=C1Nc2ccc(F)cc2C1=Cc1ccc(OCc2cccnc2)cc1 (mixture of isomers) ?
Outgoing: 65.7

Incoming: Which measured inhibition at 10 µM value corresponds to O=C1Nc2ccc(F)cc2C1=Cc1ccc(OCc2ccccc2)cc1 (mixture of isomers) ?
Outgoing: -6.03

Incoming: Which measured inhibition at 10 µM value corresponds to O=C1Nc2ccc(Cl)cc2C1=Cc1ccc(OCc2ccccn2)cc1 (mixture of isomers) ?
Outgoing: 21.2

---

# System: RPMI-8226
# protocolSummary: NCI-60 antiproliferative screen (SRB)
# Type: cell-based, human
# conditionsUsed: Homo sapiens; 10 µM single dose, 48 h; RPMI-8226 (Leukemia); read-out: Growth inhibition (%)
Entry flag: rule met if inhibition at 10 µM reaches 50%; rule not met if it does not.

Incoming: Can O=C1Nc2ccc(Cl)cc2C1=Cc1ccc(OCc2ccccc2)cc1 (mixture of isomers) be said to have inhibition at 10 µM at or above 50%?
Outgoing: rule not met

Incoming: Can O=C1Nc2ccc(F)cc2C1=Cc1ccc(OCc2ccncc2)cc1 (mixture of isomers) be said to have inhibition at 10 µM at or above 50%?
Outgoing: rule met

Incoming: Can O=C1Nc2cc(Cl)ccc2C1=Cc1ccc(OCc2ccncc2)cc1 (mixture of isomers) be said to have inhibition at 10 µM at or above 50%?
Outgoing: rule met

Incoming: Can O=C1Nc2ccccc2C1=Cc1ccc(OCc2ccncc2)cc1 (mixture of isomers) be said to have inhibition at 10 µM at or above 50%?
Outgoing: rule met

Incoming: Can O=C1Nc2ccc(F)cc2C1=Cc1ccc(OCc2ccccn2)cc1 (mixture of isomers) be said to have inhibition at 10 µM at or above 50%?
Outgoing: rule not met

Incoming: Can O=C1Nc2ccc(F)cc2C1=Cc1ccc(OCc2ccccc2)cc1 (mixture of isomers) be said to have inhibition at 10 µM at or above 50%?
Outgoing: rule not met

Incoming: Can O=C1Nc2ccccc2C1=Cc1ccc(OCc2ccccc2)cc1 (mixture of isomers) be said to have inhibition at 10 µM at or above 50%?
Outgoing: rule not met

Incoming: Can O=C1Nc2ccccc2C1=Cc1ccc(OCc2cccnc2)cc1 (mixture of isomers) be said to have inhibition at 10 µM at or above 50%?
Outgoing: rule not met

Incoming: Can O=C1Nc2cc(Cl)ccc2C1=Cc1ccc(OCc2ccccc2)cc1 (mixture of isomers) be said to have inhibition at 10 µM at or above 50%?
Outgoing: rule not met

Incoming: Can O=C1Nc2cc(Cl)ccc2C1=Cc1ccc(OCc2cccnc2)cc1 (mixture of isomers) be said to have inhibition at 10 µM at or above 50%?
Outgoing: rule met

Incoming: Can O=C1Nc2ccccc2C1=Cc1ccc(OCc2ccccn2)cc1 (mixture of isomers) be said to have inhibition at 10 µM at or above 50%?
Outgoing: rule met

Incoming: Can O=C1Nc2ccc(Cl)cc2C1=Cc1ccc(OCc2cccnc2)cc1 (mixture of isomers) be said to have inhibition at 10 µM at or above 50%?
Outgoing: rule not met

Incoming: Can O=C1Nc2ccc(F)cc2C1=Cc1ccc(OCc2cccnc2)cc1 (mixture of isomers) be said to have inhibition at 10 µM at or above 50%?
Outgoing: rule met

Incoming: Can O=C1Nc2cc(Cl)ccc2C1=Cc1ccc(OCc2ccccn2)cc1 (mixture of isomers) be said to have inhibition at 10 µM at or above 50%?
Outgoing: rule not met

Incoming: Can O=C1Nc2ccc(Cl)cc2C1=Cc1ccc(OCc2ccccn2)cc1 (mixture of isomers) be said to have inhibition at 10 µM at or above 50%?
Outgoing: rule not met

Incoming: Can O=C1Nc2ccc(Cl)cc2C1=Cc1ccc(OCc2ccncc2)cc1 (mixture of isomers) be said to have inhibition at 10 µM at or above 50%?
Outgoing: rule met
